# Tested on: P. Ovale
# Test Name: Microbiological activity against P. Ovale, agar serial dilution (Table 1)
# Assay type: cell-based, P. Ovale (ATCC 14521)
# Run Parameters: 96 h, read-out: Minimum Inhibitory Concentration (MIC) against P. Ovale
Test Readout: MIC (µg/mL)

>  <Molecule>
Oc1ccc(Cl)cc1Sc1cc(Cl)ccc1O

>  <Tested Target>
P. Ovale

>  <Test Readout>
MIC

>  <Modifier>
>

>  <Recorded Value>
1000

$$$$
>  <Molecule>
C=CCCCCCCCCC(=O)O

>  <Tested Target>
P. Ovale

>  <Test Readout>
MIC

>  <Modifier>
=

>  <Recorded Value>
1000

$$$$
>  <Molecule>
Oc1cccc2cccnc12 [8-Hydroxyquinoline]

>  <Tested Target>
P. Ovale

>  <Test Readout>
MIC

>  <Modifier>
=

>  <Recorded Value>
100

$$$$
>  <Molecule>
Oc1c(Cl)cc(Cl)c(Cl)c1Cc1c(O)c(Cl)cc(Cl)c1Cl

>  <Tested Target>
P. Ovale

>  <Test Readout>
MIC

>  <Modifier>
>

>  <Recorded Value>
1000

$$$$
